Test system: SK-ES-1
Experiment: relative viability vs DMSO control (72 h) (fraction); higher = more viable cells
Conditions: 0.00017 µM
For each record, check the reported relative viability: if it is below 1 write T, else write F.

relative viability under 1? Item: O=C(Cc1ccc(-c2ccc(OCCN3CCOCC3)cc2)cn1)NCc1ccccc1
F

relative viability under 1? Item: CC(C)N1CCN(Cc2cnc(-c3cc(-c4cccc5[nH]ccc45)cc4[nH]ncc34)o2)CC1
T

relative viability under 1? Item: CNC(=O)c1ccc(-c2cnc3ncc(Cc4ccc5ncccc5c4)n3n2)cc1F
F

relative viability under 1? Item: CNC(=O)c1cc(Oc2ccc(NC(=O)Nc3ccc(Cl)c(C(F)(F)F)c3)c(F)c2)ccn1
F

----------
Test system: KHOS-NP
Assay: standardised AUC of viability dose-response curve (72 h) (fraction (0-1)); higher = less growth inhibition (more resistant)
Endpoint label: standardised AUC

So for C[C@@H]1COCCN1c1cc(-c2ccnn2C)c2ccnc(-c3ccn[nH]3)c2n1 , the logged standardised AUC turned out to be 0.826

So for CN[C@@H]1C[C@H]2O[C@@](C)([C@@H]1OC)n1c3ccccc3c3c4c(c5c6ccccc6n2c5c31)C(=O)NC4 , the logged standardised AUC turned out to be 0.369

So for Cn1cnc2c(F)c(Nc3ccc(Br)cc3F)c(C(=O)NOCCO)cc21 , the logged standardised AUC turned out to be 0.773

So for Cc1cc(C)c(/C=C2\C(=O)Nc3ccccc32)[nH]1 , the logged standardised AUC turned out to be 0.98

----------
Tested on: A204
Test: relative viability vs DMSO control (72 h) (fraction); higher = more viable cells
Conditions: 0.00051 µM
Endpoint label: relative viability

relative viability on A204 for COc1cc2/c(=N/c3ccc(Br)cc3F)nc[nH]c2cc1OCC1CCN(C)CC1 is 1.02

relative viability on A204 for O=C(Nc1cnn2ccc(N3CCC[C@@H]3c3cc(F)ccc3F)nc12)N1CC[C@H](O)C1 is 1.1

relative viability on A204 for Nc1cc(C(F)(F)F)c(-c2cc(N3CCOCC3)nc(N3CCOCC3)n2)cn1 is 1.03

relative viability on A204 for CCN1CCN(Cc2ccc(Nc3ncc(F)c(-c4cc(F)c5nc(C)n(C(C)C)c5c4)n3)nc2)CC1 is 1.04

relative viability on A204 for Cc1ccc(F)c(NC(=O)Nc2ccc(-c3cccc4[nH]nc(N)c34)cc2)c1 is 1.11

relative viability on A204 for CC[C@H](Nc1ncnc2[nH]cnc12)c1nc2cccc(F)c2c(=O)n1-c1ccccc1 is 1.1

----------
Test system: MES-SA
Experiment: relative viability vs DMSO control (72 h) (fraction); higher = more viable cells
Details: 10 µM
For each record, check the reported relative viability: if it is below 0.5 write condition met, else write condition not met.

relative viability under 0.5? Item: Cc1nc(-c2cn3c(n2)-c2ccc(-c4cnn(C(C)(C)C(N)=O)c4)cc2OCC3)n(C(C)C)n1
condition met

relative viability under 0.5? Item: Cc1ccc(NC(=O)c2ccc(CN3CCN(C)CC3)cc2)cc1Nc1nc(-c2cccnc2)cs1
condition met

relative viability under 0.5? Item: C[C@@H]1CCN(C(=O)CC#N)C[C@@H]1N(C)c1ncnc2[nH]ccc12
condition not met

relative viability under 0.5? Item: Cc1cc(Nc2ncnc3ccc(NC4=NC(C)(C)CO4)cc23)ccc1Oc1ccn2ncnc2c1
condition not met

relative viability under 0.5? Item: COc1cc2nccc(Oc3ccc(NC(=O)Nc4cc(C)on4)c(Cl)c3)c2cc1OC
condition met

relative viability under 0.5? Item: C=CC(=O)N1CCC([C@@H]2CCNc3c(C(N)=O)c(-c4ccc(Oc5ccccc5)cc4)nn32)CC1
condition not met

relative viability under 0.5? Item: C[C@@H](c1ccc2nccn2c1)n1nnc2ncc(-c3cnn(C)c3)nc21
condition not met

relative viability under 0.5? Item: CN1CCN(c2ccc3nc(-c4c(N)c5c(F)cccc5[nH]c4=O)[nH]c3c2)CC1
condition met

relative viability under 0.5? Item: CC(=O)Nc1cccc(-n2c(=O)n(C3CC3)c(=O)c3c(Nc4ccc(I)cc4F)n(C)c(=O)c(C)c32)c1
condition not met

relative viability under 0.5? Item: Cc1cc(C)c(/C=C2\C(=O)Nc3ccccc32)[nH]1
condition not met

relative viability under 0.5? Item: Nc1cc(C(F)(F)F)c(-c2cc(N3CCOCC3)nc(N3CCOCC3)n2)cn1
condition met

relative viability under 0.5? Item: COc1cc2/c(=N/c3ccc(Br)cc3F)nc[nH]c2cc1OCC1CCN(C)CC1
condition met

relative viability under 0.5? Item: CO[C@H]1C[C@@H]2CC[C@@H](C)[C@@](O)(O2)C(=O)C(=O)N2CCCC[C@H]2C(=O)O[C@H]([C@H](C)C[C@@H]2CC[C@@H](OP(C)(C)=O)[C@H](OC)C2)CC(=O)[C@H](C)/C=C(\C)[C@@H](O)[C@@H](OC)C(=O)[C@H](C)C[C@H](C)/C=C/C=C/C=C/1C
condition met

Data provenance is the supplement of paper PMC10883282.
